tested on: co-culture model of human muscle cells and neurons from the spinal marrow of rat embryos; assay: Efficacy test: frequency of muscle contractions in a nerve-muscle co-culture model; type: cell-based, human (myoblasts), rat (embryo spinal explants); settings: 1.0 mM; 48 hours after incubation; contractions counted for 30 seconds, compared to number before incubation; means of 3 measurements
Non-standard residues stand in square brackets, D forms with d. Residues, ends and D or L forms follow the SMILES beside them. *: point of attachment. NHPhenethyl = c1ccc(CCN*)cc1; Dap = NC[CH](N)C(=O)O; NHBn = c1ccc(CN*)cc1
observed.property: Variation Δ [in %] of the number of muscle contractions (48 h) (%)
Answer format: numeric, % implied, no suffix.

molecule	quantitative.result
CC(N)C(=O)N1CCCC1C(=O)NC(CCCNC(=N)N)C(=O)NCCc1ccccc1 (stereo not drawn) [4.7] (H-Ala-Pro-Arg-NHPhenethyl; configuration not given here)	3
N=C(N)NCCCC(NC(=O)C1CCCN1C(=O)C(N)CN)C(=O)NCc1ccccc1 (stereo not drawn) [4.6] (H-[Dap]-Pro-Arg-NHBn; configuration not given here)	0

Below: the item to evaluate.
Query: What Variation Δ [in %] of the number of muscle contractions (48 h) value was documented for this molecule, COc1ccc(CNC(=O)C(CCCNC(=N)N)NC(=O)C2CCCN2C(=O)C(C)N)cc1 (stereo not drawn) ?
Response: 32

====

test system: co-culture model of human muscle cells and neurons from the spinal marrow of rat embryos; assay: Efficacy test: frequency of muscle contractions in a nerve-muscle co-culture model; assay type: cell-based, human (myoblasts), rat (embryo spinal explants); conditions: 0.5 mM; 2 hours after incubation; contractions counted for 30 seconds, compared to number before incubation; means of 3 measurements
Residues, ends and D or L forms follow the SMILES beside them. *: point of attachment. NHPhenethyl = c1ccc(CCN*)cc1; NHBn = c1ccc(CN*)cc1
observed.property: Variation Δ [in %] of the number of muscle contractions (2 h) (%)
Answer format: numeric, % implied, no suffix.

compound	quantitative.result
CC(N)C(=O)N1CCCC1C(=O)NC(CCCNC(=N)N)C(=O)NCCc1ccccc1 (stereo not drawn) [4.7] (H-Ala-Pro-Arg-NHPhenethyl; configuration not given here)	0
COc1ccc(CNC(=O)C(CCCNC(=N)N)NC(=O)C2CCCN2C(=O)C(C)N)cc1 (stereo not shown) [4.8]	90
C[C@H](N=C(N(C)C)N(C)C)C(=O)N1CCC[C@@H]1C(=O)N[C@@H](CCCNC(=N)N)C(=O)NCc1ccccc1 [4.11]	16

Below: the item to evaluate.
Query: What Variation Δ [in %] of the number of muscle contractions (2 h) value was documented for this compound, CC(N)C(=O)N1CCCC1C(=O)NC(CCCNC(=N)N)C(=O)NC(CCCNC(=N)N)C(=O)NCc1ccccc1 (stereo not shown) [4.3] (H-APRR-NHBn; configuration not given here) ?
Response: 1

====

Tested on: co-culture model of human muscle cells and neurons from the spinal marrow of rat embryos
Assay: Efficacy test: frequency of muscle contractions in a nerve-muscle co-culture model
Format: cell-based, human (myoblasts), rat (embryo spinal explants)
Conditions: 0.1 mM; 2 hours after incubation; contractions counted for 30 seconds, compared to number before incubation; means of 3 measurements
Experimental: Culture conditions: 37° C., 5% CO2 In order to test the efficacy of the compounds of the present invention, a co-culture model of human muscle cells on one hand and neurons from the spinal marrow of rat embryos on the other hand was established. Normal human muscle cells (myoblasts) were cultured in gelatine-coated 24-well plates until a monolayer of myofibrils (from fused muscle cells) had formed. […]
Non-standard residues stand in square brackets, D forms with d. Residues, ends and D or L forms follow the SMILES beside them. *: point of attachment. NHPhenethyl = c1ccc(CCN*)cc1; Dap = NC[CH](N)C(=O)O; NHBn = c1ccc(CN*)cc1
Each item that follows carries a reported Variation Δ [in %] of the number of muscle contractions (2 h).
Answer format: numeric, % implied, no suffix.

Solved entries:
compound	quantitative.result
CC(N)C(=O)N1CCCC1C(=O)NC(CCCNC(=N)N)C(=O)NCc1ccccc1 (stereo not drawn) [4.2] (H-Ala-Pro-Arg-NHBn; configuration not given here)	78
CC(N)C(=O)N1CCCC1C(=O)NC(CCCNC(=N)N)C(=O)NC(CCCNC(=N)N)C(=O)NCc1ccccc1 (stereo not shown) [4.3] (H-APRR-NHBn; configuration not given here)	5
C[C@H](N=C(N(C)C)N(C)C)C(=O)N1CCC[C@@H]1C(=O)N[C@@H](CCCNC(=N)N)C(=O)NCc1ccccc1	75
CC(N)C(=O)N1CCCC1C(=O)NC(CCCNC(=N)N)C(=O)NCCc1ccccc1 (stereo not drawn) [4.7] (H-Ala-Pro-Arg-NHPhenethyl; configuration not given here)	69

Query: What Variation Δ [in %] of the number of muscle contractions (2 h) value was documented for this compound, COc1ccc(CNC(=O)C(CCCNC(=N)N)NC(=O)C2CCCN2C(=O)C(C)N)cc1 (stereo not shown) ?
Response: 37

Query: Also check N=C(N)NCCCC(NC(=O)C1CCCN1C(=O)C(N)CN)C(=O)NCc1ccccc1 (stereo not drawn) [4.6] (H-[Dap]-Pro-Arg-NHBn; configuration not given here)
Response: 68

Query: Also check CSCC[C@H](NC(=O)[C@H](CCC(=O)O)NC(=O)[C@H](CCC(=O)O)NC(C)=O)C(=O)N[C@@H](CCC(N)=O)C(=O)N[C@@H](CCCNC(=N)N)C(=O)N[C@@H](CCCNC(=N)N)C(N)=O [Product A, Ac-Glu-Glu-Met-Gln-Arg-Arg-NH2, reference compound] (Ac-EEMQRR-NH2)
Response: 120
